conditions: buffer; pH 7.4; 200.0 µM
Note to self: values exactly at 30 µg/mL are Fulfilled. So solubility kinetic at or above 30 µg/mL is Fulfilled, below is Not fulfilled.

Query: Threshold query (solubility kinetic >= 30 µg/mL) on Cc1ccc(OCCc2csc(N)n2)cc1
Reply: Fulfilled

Query: Threshold query (solubility kinetic >= 30 µg/mL) on Cc1c(F)cccc1NC(=O)c1ccc2c(c1)CCN2S(C)(=O)=O
Reply: Not fulfilled

Query: Threshold query (solubility kinetic >= 30 µg/mL) on Cc1c(C)n2c3c(cccc13)CC2
Reply: Not fulfilled

Query: Threshold query (solubility kinetic >= 30 µg/mL) on CC(C)(C)C(=O)NC(=S)N1CCc2ccccc21
Reply: Fulfilled

Query: Threshold query (solubility kinetic >= 30 µg/mL) on Cc1cccc(Oc2ccc3c(c2)cc(C(=O)O)n3C)c1
Reply: Fulfilled

Query: Threshold query (solubility kinetic >= 30 µg/mL) on CC(C)(C)c1ccc(C2(C)NC(=O)NC2=O)cc1 (stereo not given)
Reply: Fulfilled

Query: Threshold query (solubility kinetic >= 30 µg/mL) on CCOc1cc(N2CCOCC2)c(OCC)cc1NC(=O)CSc1nnc(N)s1
Reply: Fulfilled

Query: Threshold query (solubility kinetic >= 30 µg/mL) on CN1C(=O)N(C)C(c2cccc([N+](=O)[O-])c2)C2=C1CCCC2=O (stereo not given)
Reply: Fulfilled

Query: Threshold query (solubility kinetic >= 30 µg/mL) on OC(CNCc1ccc(Cl)cc1)C(F)(F)F (stereo not given)
Reply: Fulfilled

Query: Threshold query (solubility kinetic >= 30 µg/mL) on CCOC(=O)CN1C(=O)CC(c2ccc([N+](=O)[O-])cc2)C1=O (stereo not given)
Reply: Fulfilled

Query: Threshold query (solubility kinetic >= 30 µg/mL) on CCOC(=O)c1ccc(NC(=O)C2C3CCCCC32)cc1 (stereo not given)
Reply: Not fulfilled

Query: Threshold query (solubility kinetic >= 30 µg/mL) on Cn1c(=O)c2c(O)c([N+](=O)[O-])c(=O)n(C)c2n(C)c1=O
Reply: Fulfilled

Query: Threshold query (solubility kinetic >= 30 µg/mL) on COc1ccc(NC(=O)CCN2C(=O)c3ccccc3C2=O)c(OC)c1
Reply: Not fulfilled

Query: Threshold query (solubility kinetic >= 30 µg/mL) on CN1CCN(C(=O)C2CC(=O)N(c3ccc(Cl)cc3)C2)CC1 (stereo not given)
Reply: Fulfilled

Query: Threshold query (solubility kinetic >= 30 µg/mL) on CCN1CCN(CCc2nc3cc([N+](=O)[O-])ccc3n2C)CC1
Reply: Fulfilled

Query: Threshold query (solubility kinetic >= 30 µg/mL) on CC(=O)c1sc(Nc2cccc3ccccc23)nc1C.Cl
Reply: Not fulfilled

Query: Threshold query (solubility kinetic >= 30 µg/mL) on O=C(CCC(=O)c1ccccc1)NCCOc1ccccc1
Reply: Fulfilled

Query: Threshold query (solubility kinetic >= 30 µg/mL) on COCCNC(=O)c1ccc2c(c1)CCN2S(C)(=O)=O
Reply: Fulfilled

Query: Threshold query (solubility kinetic >= 30 µg/mL) on Oc1ccccc1CNc1cccc2cccnc12
Reply: Not fulfilled

Query: Threshold query (solubility kinetic >= 30 µg/mL) on COc1ccc2cc(/C=N/O)c(Cl)nc2c1
Reply: Not fulfilled

Query: Threshold query (solubility kinetic >= 30 µg/mL) on CN(Cc1ccccc1)S(=O)(=O)c1ccc(Cl)c(C(=O)OCC(=O)NC2CCS(=O)(=O)C2)c1 (stereo not given)
Reply: Not fulfilled

Query: Threshold query (solubility kinetic >= 30 µg/mL) on Nc1c(C(=O)[O-])sc2nc3c(cc12)CCCC3
Reply: Not fulfilled

Query: Threshold query (solubility kinetic >= 30 µg/mL) on Cc1ccc(NC(=O)c2cccc3cccnc23)cc1
Reply: Not fulfilled
